System: Staphylococcus capitis (American Type Culture Collection number 35661)
Protocol Notes: Minimal inhibitory concentration (MIC), two fold serial dilutions in 2×YT broth
Type: cell-based
Setup Conditions: Staphylococcus capitis, ATCC35661; S. capitis ATCC 35661, 2×YT broth, 37° C., 18 hours; lowest concentration that inhibited visible growth
Listing of recorded MIC by entry.
Quantity: MIC (µM)

>>> endpoint_value("CCCC[C@H](CN(O)C=O)C(=O)N[C@H](C(=O)N1CCN(C(=O)c2ccc3c(c2)OCO3)CC1)C(C)(C)C [Example 55]")
6.2
>>> endpoint_value("CC(C)(C)C(NC(=O)[C@H](CC1CCCC1)CN(O)C=O)C(=O)N1CCC(Oc2ccc(C(=O)N3CCC(O)CC3)cc2)CC1 (stereo partly shown) [Example 91]")
25
>>> endpoint_value("CCCC[C@H](CN(O)C=O)C(=O)N[C@H](C(=O)N1CCN(Cc2cccnc2)CC1)C(C)(C)C [Example 56]")
25
>>> endpoint_value("CC(C)(C)C(NC(=O)[C@H](CC1CCCC1)CN(O)C=O)C(=O)N1CCC(Oc2ccc(C(=O)N3CCOCC3)cc2)CC1 (stereo partly shown) [Example 89]")
25
>>> endpoint_value("CC(C)(C)[C@H](NC(=O)[C@H](CC1CCCC1)CN(O)C=O)C(=O)N1CCN(Cc2ccc3c(c2)OCO3)CC1 [Example 57]")
6.2
>>> endpoint_value("CCCC[C@H](CN(O)C=O)C(=O)N1CCC(c2ccccc2)CC1 [Example 24]")
100
>>> endpoint_value("CN(C)C(=O)c1ccc(OC2CCN(C(=O)[C@@H](NC(=O)[C@H](CC3CCCC3)CN(O)C=O)C(C)(C)C)CC2)cc1 [Example 88]")
6.2
